B1: library; numbered along this chain (parent)
chain: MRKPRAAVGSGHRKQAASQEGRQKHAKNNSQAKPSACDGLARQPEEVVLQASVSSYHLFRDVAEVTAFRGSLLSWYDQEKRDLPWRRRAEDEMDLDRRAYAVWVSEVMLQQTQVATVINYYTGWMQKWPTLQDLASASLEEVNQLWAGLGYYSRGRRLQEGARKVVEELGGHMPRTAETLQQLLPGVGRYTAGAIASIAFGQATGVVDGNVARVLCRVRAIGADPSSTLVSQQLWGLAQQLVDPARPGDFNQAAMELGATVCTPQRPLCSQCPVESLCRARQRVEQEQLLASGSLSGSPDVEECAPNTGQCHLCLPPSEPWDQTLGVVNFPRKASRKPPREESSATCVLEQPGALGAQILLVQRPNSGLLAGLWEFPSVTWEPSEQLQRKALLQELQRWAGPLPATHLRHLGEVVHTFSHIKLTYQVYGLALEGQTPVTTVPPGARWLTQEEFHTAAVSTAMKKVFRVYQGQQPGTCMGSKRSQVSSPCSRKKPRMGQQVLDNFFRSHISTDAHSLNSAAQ

# Variants of: B1
# Method Summary: 8OG:A repair function score (normalized; synonymous = 0, nonsense = -1) (normalized log-likelihood score); higher = more repair activity (WT-like);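 also: cells sorted at 72 h after reporter transfection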
# Experimental Context: with 8OG:A DNA repair reporter (GFP) in HEK-293 MUTYH KO cells
Short version: 8OG:A repair function score at least -0.05 is t, less is f.

F418P; f
Q394E; t
M478D; t
S515F; t
L83M; f

Input line: Please tell me: is the variant "K493P" at or over -0.05 in terms of 8OG:A repair function score?
Output line: t

Where do these numbers come from? They come from the supplement of paper PMC11908140.
